B1: TPR t1 (parent)
chain: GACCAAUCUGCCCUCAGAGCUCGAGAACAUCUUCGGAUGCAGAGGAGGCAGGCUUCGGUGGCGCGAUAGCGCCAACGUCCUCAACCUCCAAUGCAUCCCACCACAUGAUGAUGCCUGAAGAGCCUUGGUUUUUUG

- Variants of: B1
- test details: polymerase ribozyme fitness, log enrichment relative to wild type (log ratio); higher = more active; in vitro selection for triplet polymerase activity
Entries and their polymerase ribozyme fitness (log ratio) values follow.

mutation string	polymerase ribozyme fitness (log ratio)
C11A C56A U81G A84U C101U C115A G120C U134G	0.0951
G45U C72A U81C A84C C104U G110U U131C	-4.32
A26U C72U	-2.63
C31U G113A	-3.94
C8U U14G G17A A119G	-0.996
C3U C40U G60U	0.0261
U9G U14G G93A	-0.26
C72U C123U	0.155
A27U A50U	-4.65
G57U U78A C80U	-0.707
C49U C73U G110A	-1.42
